# System: SK-OV-3 ovarian
# assayProtocol: NCI-60 one-dose screen, 48 h (100 = growth as untreated, 0 = no growth, -100 = all killed)
# condition: 10 µM
Compounds without any hit were thinned out: in the full panel of roughly 83,000, 20% have a hit.
# growth values compiled below
experimentalEndpoint: growth (%)

[[record]]
compound = "COc1cc2c(cc1OCCCN1CCN(c3ncnc4ccccc34)CC1)N=CC1CCCN1C2=O (stereo not given)"
resultvalue = 19.8

[[record]]
compound = "Clc1nc(Cl)c2c(ncn2C/C=C\\Cn2cnc3c(Cl)nc(Cl)nc32)n1"
resultvalue = 34.5

[[record]]
compound = "CCC(=O)N1C/C(=C/c2ccc(Cl)cc2)C(=O)/C(=C/c2ccc(Cl)cc2)C1"
resultvalue = -34.8

[[record]]
compound = "Cc1cc2ccccc2nc1-c1ccccc1F"
resultvalue = 96.4

[[record]]
compound = "COc1cc(C(=C2O[C@@H]([C@H]3COC(C)(C)O3)[C@H]3OC(C)(C)O[C@@H]23)c2cc(OC)c(OC)c(OC)c2)cc(OC)c1OC"
resultvalue = 116


====

# Tested on: RPMI-8226 leukemia
# assayProtocol: NCI-60 one-dose screen, 48 h
# condition: 10 µM
The panel holds about 83,000 compounds, 20% with a hit somewhere; the sample as a whole holds those more often. Calls of active or inactive are those of the source. How the source made its calls: active means growth percent below 10; inactive means the rest.
Outcome codes: 1 (active), -1 (inactive)

[[record]]
compound = "COc1cc(/C=C\\c2cc(OC)c(OC)c(OC)c2)cc(NS(=O)(=O)c2ccc(Cl)cc2)c1OC"
classification = 1

[[record]]
compound = "COc1ccc2c(c1OC)O/C(=C\\c1ncc([N+](=O)[O-])n1C)C2=O"
classification = -1

[[record]]
compound = "CCN(CC)CCOc1nc2ccc(OC)cc2c2c1-c1ccc(OC)cc1C2=O"
classification = 1

[[record]]
compound = "Nc1nc(N)c2c(ccc3nccc32)[nH]1"
classification = -1

[[record]]
compound = "COc1cc(Nc2ccnc(NCCNc3ccnc4cc(Cl)ccc34)n2)cc(OC)c1"
classification = 1

[[record]]
compound = "O=C(CCCCC[P+](c1ccccc1)(c1ccccc1)c1ccccc1)NC(COC(=O)C(Cl)Cl)(COC(=O)C(Cl)Cl)COC(=O)C(Cl)Cl"
classification = -1

[[record]]
compound = "COc1ccc(-c2nc3ccccn3c2-c2nnc(-c3cc(OC)c(OC)c(OC)c3)o2)cc1"
classification = -1

[[record]]
compound = "O=C(Nc1ccc(Cl)c(Cl)c1)Nc1c(Oc2ccc(Cl)c(Cl)c2)ccc(Cl)c1S(=O)(=O)O"
classification = -1

[[record]]
compound = "FC(F)(F)c1ccc(-c2cnc(Cl)nc2N2CCC3(CC2)OCCO3)cc1"
classification = -1

[[record]]
compound = "O=C(c1cccs1)c1ccccc1Cc1ccccc1"
classification = -1

[[record]]
compound = "CCCCCCc1cc(N=Nc2ccc(S(=O)(=O)Nc3cc(C)nc(C)n3)cc2)c(O)cc1O"
classification = -1

[[record]]
compound = "CSc1nc(=O)n(Cc2ccc(Cl)cc2)c(=O)[nH]1"
classification = -1

[[record]]
compound = "COc1ccc(/C=C/C(=O)Nc2ccc(-c3nc4ccc(F)cc4s3)cc2)cc1"
classification = -1

[[record]]
compound = "O=C1/C(=C\\c2ccc(Cl)cc2)CN(C(=O)c2ccccc2)C/C1=C\\c1ccc(Cl)cc1"
classification = 1

[[record]]
compound = "CC(=O)c1nc2ccccc2n1CCN1CCN(C)CC1"
classification = 1

[[record]]
compound = "CN(C)N=Nc1nn(C(=O)Nc2ccc(Cc3ccccc3)cc2)c2ccccc12"
classification = -1

[[record]]
compound = "Cc1ccc(NC(=O)NC2CCCCC2)cc1"
classification = -1

[[record]]
compound = "N#CCCN(NC(=O)OCc1ccccc1)C(=O)OCc1ccccc1"
classification = -1

[[record]]
compound = "Cn1c([N+](=O)[O-])cnc1/C=C1\\Oc2ccc(Cl)cc2C1=O"
classification = 1

[[record]]
compound = "Cc1cn(C2CCCCO2)c(=O)nc1NO (stereo not drawn)"
classification = -1

[[record]]
compound = "CC12O[C@H](C[C@@H](O)[C@H]1O)n1c3ccccc3c3c4c(c5c6ccccc6n2c5c31)C(=O)N(CCCN)C4=O"
classification = -1

[[record]]
compound = "O=C(Nc1cccc(-n2cc(-c3ccncc3)c(-c3ccc(O)c(Cl)c3)n2)c1)Nc1cccc(C(F)(F)F)c1"
classification = 1

[[record]]
compound = "COc1cc(Cc2cc(-c3ccc(Cl)cc3)n[nH]c2=O)ccc1O"
classification = -1

[[record]]
compound = "CC(=O)/C(=C/c1ccccc1)C(=O)CC(C)C"
classification = -1

[[record]]
compound = "CCN(CC)Cc1cc(Nc2ccnc3cc(Cl)ccc23)ccc1OC"
classification = -1

[[record]]
compound = "COc1ccc(Cn2c(C(N)=O)cc3c2-c2nc(N)ncc2CCC3)cc1"
classification = -1

[[record]]
compound = "COc1ccc2c(c1)sc1nc(-c3ccccc3)c(-c3cccnc3)n12"
classification = -1

[[record]]
compound = "CC(=O)CSC(C)=O"
classification = -1

[[record]]
compound = "NC(=O)CC1(c2ccccc2)CCCCC1"
classification = -1

[[record]]
compound = "Fc1ccc2nc(-c3nc(-c4ccccc4)n4ccccc34)[nH]c2c1"
classification = 1

[[record]]
compound = "CN(C)CCNC(=O)c1cccn2c(=O)c3cc4ccccc4cc3nc12"
classification = 1

[[record]]
compound = "O=C(Nc1ccncc1)C(=O)c1cn(S(=O)(=O)c2cc(Cl)cc(Cl)c2)c2ccccc12"
classification = -1

[[record]]
compound = "COc1ccccc1CNCCCN1C(=O)c2ccc3c4c(ccc(c24)C1=O)C(=O)N(CCCN)C3=O"
classification = 1

[[record]]
compound = "CCCCCC(=O)c1ccc(OCCCN2CCN(C(=O)OCC)CC2)cc1"
classification = -1

[[record]]
compound = "CC(=O)c1nc2ccccc2n1CCNC(N)=O"
classification = -1

[[record]]
compound = "CCCC1(CC(=O)O)OCCc2c1[nH]c1ccccc21 (stereo not drawn)"
classification = -1

[[record]]
compound = "N#CCCN1C/C(=C/c2ccc(Cl)cc2)C(=O)/C(=C/c2ccc(Cl)cc2)C1"
classification = 1

[[record]]
compound = "Cn1c([N+](=O)[O-])cnc1/C=C1\\Oc2ccccc2C1=O"
classification = 1

[[record]]
compound = "COc1cc(/C=N/NC(=O)c2ccccc2Nc2cccc(C(F)(F)F)c2)cc(OC)c1OC"
classification = -1

[[record]]
compound = "CC(C)(C)c1cc(Br)cc(C(C)(C)C)c1O"
classification = -1

[[record]]
compound = "COc1ccc(-c2nn(-c3cccc(NC(=O)c4cccc(C(F)(F)F)c4)c3)cc2-c2ccncc2)cc1Cl"
classification = 1

[[record]]
compound = "O=C(Nc1ccc(CO)cc1)c1ccccc1Nc1ccnc(C(F)(F)F)c1"
classification = -1

[[record]]
compound = "Cc1cc(=O)[nH]c(N/N=C/c2ccccc2O)n1"
classification = -1

